# Test system: LOC_OS01G02750-cb003
# experiment-summary: thermal shift delta Tm vs DMSO control; higher = stronger stabilization (binding);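 note: purified Escherichia coli-expressed rice kinase domain construct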
# settings: 12.5 µM; protein concentration 2 µM
assay-metric: thermal shift delta Tm (°C)

{"compound": "NC1(Cc2ccc(Cl)cc2)CCN(c2ncnc3[nH]ccc23)CC1", "target-entity": "LOC_OS01G02750-cb003", "data-value": 0.58}
{"compound": "CCCS(=O)(=O)Nc1ccc(F)c(C(=O)c2c[nH]c3ncc(-c4ccc(Cl)cc4)cc23)c1F", "target-entity": "LOC_OS01G02750-cb003", "data-value": 7.84}
{"compound": "CC1(C)CNc2cc(NC(=O)c3cccnc3NCc3ccncc3)ccc21 [Motesanib Diphosphate (AMG-706)]", "target-entity": "LOC_OS01G02750-cb003", "data-value": 0.81}
{"compound": "CCNC(=O)Nc1ccc(-c2nc3c(c(N4CCOC[C@@H]4C)n2)CCN(C2COC2)C3)cc1", "target-entity": "LOC_OS01G02750-cb003", "data-value": 0.52}
{"compound": "CS(=O)(=O)c1cccc(CNc2nc(Nc3ccc4c(c3)CCC(=O)N4)ncc2C(F)(F)F)c1", "target-entity": "LOC_OS01G02750-cb003", "data-value": 3.6}
{"compound": "Cc1ncc(CO)c(CO)c1O", "target-entity": "LOC_OS01G02750-cb003", "data-value": 0.64}
{"compound": "Cc1cc(Nc2ncc(Cl)c(Nc3ccccc3S(=O)(=O)C(C)C)n2)c(OC(C)C)cc1C1CCNCC1", "target-entity": "LOC_OS01G02750-cb003", "data-value": 1.1}
{"compound": "FC(F)c1nc2ccccc2n1-c1nc(N2CCOCC2)nc(N2CCOCC2)n1", "target-entity": "LOC_OS01G02750-cb003", "data-value": 0.92}
{"compound": "COc1cc(Nc2ncc(F)c(Nc3ccc4c(n3)NC(=O)C(C)(C)O4)n2)cc(OC)c1OC", "target-entity": "LOC_OS01G02750-cb003", "data-value": 0.35}
{"compound": "CCOc1ccn(-c2ccc(F)cc2)c(=O)c1C(=O)Nc1ccc(Oc2ccnc(N)c2Cl)c(F)c1", "target-entity": "LOC_OS01G02750-cb003", "data-value": 1.95}
{"compound": "O=C(NOCCO)c1ccc2cncn2c1Nc1ccc(I)cc1F", "target-entity": "LOC_OS01G02750-cb003", "data-value": 5.7}
{"compound": "CCN(CC)CCCC(C)Nc1ccnc2cc(Cl)ccc12 (configuration not stated) [Chloroquine Phosphate]", "target-entity": "LOC_OS01G02750-cb003", "data-value": 1.04}
{"compound": "N[C@@H]1CCCN(c2c(/C=C3\\SC(=O)NC3=O)cccc2-c2ccccc2)C1", "target-entity": "LOC_OS01G02750-cb003", "data-value": 0.59}
{"compound": "C[C@@H](Nc1cc(F)cc(F)c1)c1cc(C(=O)N(C)C)cc2c(=O)cc(N3CCOCC3)oc12", "target-entity": "LOC_OS01G02750-cb003", "data-value": 1.11}
{"compound": "Cc1[nH]nc2ccc(-c3cncc(OC[C@@H](N)Cc4ccccc4)c3)cc12", "target-entity": "LOC_OS01G02750-cb003", "data-value": 2.26}
{"compound": "O=C(NCCO)c1cccc(-c2cc(Nc3ccc(OC(F)(F)F)cc3)ncn2)c1", "target-entity": "LOC_OS01G02750-cb003", "data-value": 0.32}
{"compound": "CC(C)Oc1ccc(-c2nn([C@@H](C)c3oc4ccc(F)cc4c(=O)c3-c3cccc(F)c3)c3ncnc(N)c23)cc1F", "target-entity": "LOC_OS01G02750-cb003", "data-value": 1.4}
{"compound": "CO[C@H]1CC[C@H](N2C(=O)CNc3ncc(-c4ccc(C(C)(C)O)nc4)nc32)CC1", "target-entity": "LOC_OS01G02750-cb003", "data-value": -0.2}
{"compound": "COc1cc(F)c(F)c(Nc2ccc(I)cc2F)c1NS(=O)(=O)C1(C[C@H](O)CO)CC1 [Refametinib (RDEA119, Bay 86-9766)]", "target-entity": "LOC_OS01G02750-cb003", "data-value": -1.27}
{"compound": "Cc1nc(Nc2n[nH]c3c2CN(C(=O)N[C@H](CN(C)C)c2ccccc2)C3(C)C)c2sccc2n1", "target-entity": "LOC_OS01G02750-cb003", "data-value": 2.46}
{"compound": "Nc1ncc(-c2ccnc(Nc3ccncc3)n2)c(CC2CC2)n1", "target-entity": "LOC_OS01G02750-cb003", "data-value": 1.52}
{"compound": "Cc1ncc(-c2ccnc(Nc3ccc(S(C)(=O)=O)cc3)n2)n1C(C)C", "target-entity": "LOC_OS01G02750-cb003", "data-value": 2.34}
{"compound": "CNS(=O)(=O)Nc1nccc(Cc2c(C)c3ccc(Oc4ncccn4)cc3oc2=O)c1F", "target-entity": "LOC_OS01G02750-cb003", "data-value": 1.63}
{"compound": "C=CC(=O)N[C@H]1CCOC[C@H]1Nc1ncc2cc(-c3c(Cl)c(OC)cc(OC)c3Cl)ccc2n1", "target-entity": "LOC_OS01G02750-cb003", "data-value": -0.27}
{"compound": "CONC(=O)c1ccccc1Nc1cc(Nc2cc(C)nn2C(C)C)ncc1Cl", "target-entity": "LOC_OS01G02750-cb003", "data-value": 1.48}
{"compound": "CN1CCN(Cc2ccc(-c3cnc4[nH]cc(-c5ccc6[nH]ccc6c5)c4c3)cc2)CC1", "target-entity": "LOC_OS01G02750-cb003", "data-value": 5.34}
{"compound": "COc1cc2c(Nc3ccc(NC(=O)c4ccccc4)cc3)ncnc2cc1OCCCN1CCOCC1", "target-entity": "LOC_OS01G02750-cb003", "data-value": 0.98}
{"compound": "O=C(Cc1ccc(-c2ccc(OCCN3CCOCC3)cc2)cn1)NCc1ccccc1", "target-entity": "LOC_OS01G02750-cb003", "data-value": -0.23}
{"compound": "Cc1c[nH]c2nc(Nc3ccc(N4CCN(C)CC4)c(F)c3)nc(-c3cccc(CC#N)c3)c12", "target-entity": "LOC_OS01G02750-cb003", "data-value": 6.99}
{"compound": "CC(C)(C)Cn1c(N)nc2ccc(-c3[nH]c(C(C)(C)C)nc3-c3ccc(F)cc3)nc21", "target-entity": "LOC_OS01G02750-cb003", "data-value": -0.68}
{"compound": "CC(=O)Nc1nc(C)c(-c2ccc(Cl)c(S(=O)(=O)NCCO)c2)s1", "target-entity": "LOC_OS01G02750-cb003", "data-value": 1.63}
{"compound": "CC[C@@H](N)CNc1ccnc(-c2cc(-c3cnn(C)c3)ccc2O)n1", "target-entity": "LOC_OS01G02750-cb003", "data-value": 2.58}
{"compound": "CC(C)n1nc(-c2cc3cc(O)ccc3[nH]2)c2c(N)ncnc21", "target-entity": "LOC_OS01G02750-cb003", "data-value": 0.22}
{"compound": "CN1CC(O)C2=C/C(=N/NC(N)=O)C(=O)C=C21 (configuration not stated)", "target-entity": "LOC_OS01G02750-cb003", "data-value": 0.81}
{"compound": "O=C1NC(=O)C(c2ccccc2[N+](=O)[O-])=C1Nc1ccc(O)c(Cl)c1", "target-entity": "LOC_OS01G02750-cb003", "data-value": -1.98}
{"compound": "CCNc1nc(Nc2cc(F)c(C(=O)N3CCOCC3)cc2OC)ncc1C(F)(F)F", "target-entity": "LOC_OS01G02750-cb003", "data-value": 0.63}
{"compound": "CC(C)CCN1c2nc(Nc3cc(F)c(O)c(F)c3)ncc2N(C)C(=O)C1C (configuration not stated)", "target-entity": "LOC_OS01G02750-cb003", "data-value": 1.52}

* * *

thermal shift delta Tm for assorted compounds
# Test system: LOC_OS01G63280-cb003
# experiment-summary: thermal shift delta Tm vs DMSO control; higher = stronger stabilization (binding)
# settings: 12.5 µM; protein concentration 2 µM

{"compound": "COc1cc2c(Nc3ccc(NC(=O)c4ccccc4)cc3)ncnc2cc1OCCCN1CCOCC1", "scale-unit": "°C", "thermal shift delta Tm": 1.19}
{"compound": "COc1ccc(C(=O)Nc2sc3c(c2C(N)=O)CCCC3)cc1OC", "scale-unit": "°C", "thermal shift delta Tm": 0.62}
{"compound": "C=CC(=O)Nc1cccc(Oc2nc(Nc3ccc(N4CCN(C)CC4)cc3)ncc2Cl)c1", "scale-unit": "°C", "thermal shift delta Tm": 0.27}
{"compound": "COc1ccc(Cl)c(Nc2nc3ccccc3nc2NS(=O)(=O)c2cccc(NC(=O)C(C)(C)N)c2)c1 [Pilaralisib (XL147)]", "scale-unit": "°C", "thermal shift delta Tm": 2.27}
{"compound": "CNC(=O)c1nn(C)c2c1C(C)(C)Cc1cnc(Nc3ccc(N4CCN(C)CC4)cc3)nc1-2", "scale-unit": "°C", "thermal shift delta Tm": -0.14}
{"compound": "Nc1nc(N)c(N=O)c(OCC2CCCCC2)n1", "scale-unit": "°C", "thermal shift delta Tm": 0.91}
{"compound": "CNC(=O)c1ccc(-c2cnc3ncc(Cc4ccc5ncccc5c4)n3n2)cc1F", "scale-unit": "°C", "thermal shift delta Tm": 0.07}
{"compound": "COc1cc(Nc2ncc(F)c(Nc3ccc4c(n3)NC(=O)C(C)(C)O4)n2)cc(OC)c1OC", "scale-unit": "°C", "thermal shift delta Tm": 0.28}
{"compound": "Cn1ncc(Cl)c1-c1cc(C(=O)N[C@H](CN)Cc2ccc(F)c(F)c2)oc1Cl", "scale-unit": "°C", "thermal shift delta Tm": 0.28}

Attribution: the supplement of paper PMC9694430
